Origin of values: PubChem BioAssay AID1417

- Measured on: Induced myeloid leukemia cell differentiation protein Mcl-1 (Homo sapiens)
- Assay text: Mcl-1/Noxa binding inhibitor potency, dose response, biochemical, TR-FRET (AID 1417)
- Run conditions: Mcl-1/Noxa peptide interaction, cell-free TR-FRET (terbium/rhodamine), 2 h; measured here: absolute IC50
Reported endpoint: IC50

Record request: IC50 value, item `COc1cc(/C=N\Nc2nc(-c3cccs3)c(NC(C)=O)s2)ccc1O` < 400 nM

Record request: IC50 value, item `Clc1cccc(/C=N/Nc2nc(Cl)nc3ccccc23)c1` > 54000 nM

Record request: IC50 value, item `C=CCOC(=O)c1cc(-c2ccc(/C=C3\C(=O)NC(=O)C(C#N)=C3C)o2)ccc1Cl` < 400 nM

Record request: IC50 value, item `COc1cc(SC)ccc1C(=O)N1CCN(c2ccccc2)CC1` > 54000 nM

Record request: IC50 value, item O=C1c2ccc([N+](=O)[O-])cc2NC(c2ccco2)N1/N=C/c1ccco1 (stereo unspecified) > 54000 nM

Record request: IC50 value, item `O=C(O)CSc1cc(NS(=O)(=O)c2cccc([N+](=O)[O-])c2)c2ccccc2c1O` < 400 nM

Record request: IC50 value, item O=C1OCC2OC(O)C(O)C(O)C2OC(=O)c2cc(O)c(O)c(O)c2-c2c(O)c(O)c3oc(=O)c4c(c(O)c(O)c5oc(=O)c2c3c54)-c2c1cc(O)c(O)c2O (stereo unspecified) < 400 nM

Record request: IC50 value, item `Cc1nnc(Sc2cc(NCCO)c([N+](=O)[O-])c3nonc23)s1` < 400 nM

Record request: IC50 value, item `COc1ccc(N2C(=O)/C(=C/C=C/c3ccccc3[N+](=O)[O-])C(=O)NC2=S)cc1` < 400 nM

Record request: IC50 value, item CCOC(=O)C1=C(C)NC2=C(C(=O)CC(C)(C)C2)C1c1ccc2c(c1)CCCN2C (stereo unspecified) > 54000 nM

Record request: IC50 value, item `NC(=S)n1[nH]c(-c2ccc([N+](=O)[O-])cc2)c(N=Nc2ccccc2[N+](=O)[O-])c1=O` < 400 nM

====

- Measured on: Induced myeloid leukemia cell differentiation protein Mcl-1 (Homo sapiens) (UniProt Q07820)
- Sequence (Q07820 whole entry, looked up): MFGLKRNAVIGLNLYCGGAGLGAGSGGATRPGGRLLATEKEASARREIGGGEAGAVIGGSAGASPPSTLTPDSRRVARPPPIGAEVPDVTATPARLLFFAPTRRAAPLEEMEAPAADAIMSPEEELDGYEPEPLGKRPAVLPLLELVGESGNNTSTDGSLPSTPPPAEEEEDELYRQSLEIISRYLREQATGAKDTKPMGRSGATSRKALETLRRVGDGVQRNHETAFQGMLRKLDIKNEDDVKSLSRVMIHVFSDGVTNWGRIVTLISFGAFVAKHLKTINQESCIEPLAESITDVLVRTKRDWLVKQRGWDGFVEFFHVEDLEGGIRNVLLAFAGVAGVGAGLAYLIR
- Assay text: Mcl-1/Noxa binding inhibitor potency, dose response, biochemical, TR-FRET (AID 1417)
- Run conditions: Mcl-1/Noxa peptide interaction, cell-free TR-FRET (terbium/rhodamine), 2 h; measured here: absolute IC50
Reported endpoint: IC50

Record request: IC50 value, item `CCC(=O)Oc1ccc2c(=O)c(-c3ccc4ccccc4n3)c(CC)oc2c1C` > 54 µM

Record request: IC50 value, item `N#Cc1c2nc3ccccc3nc2n2cc(NC(=O)c3ccc(F)cc3)ccc12` < 0.4 µM

Record request: IC50 value, item `COc1ccc(-c2csc(Nc3ccccc3)n2)cc1` > 54 µM

Record request: IC50 value, item `CN(C)c1ccc(/C=C/c2ccc3c4ccccc4ccc3[n+]2-c2ccccc2)cc1` > 54 µM

Record request: IC50 value, item `CC1=Nc2ccc(C)cc2/C1=C/c1c(N)n2c(S(=O)(=O)C(C)C)nsc2nc1=O` > 54 µM

Record request: IC50 value, item Cc1ccc(NC(=O)CN2C(=O)/C(=C3\SC(=S)N(C4CCS(=O)(=O)C4)C3=O)c3ccccc32)cc1 (stereo not drawn) < 0.4 µM

Record request: IC50 value, item COc1cc(C(c2nnnn2C2CCCC2)N2CCc3ccccc3C2)ccc1O (stereo not drawn) < 0.4 µM

====

- Measured on: Induced myeloid leukemia cell differentiation protein Mcl-1 (Homo sapiens) (UniProt Q07820)
- Assay text: Mcl-1/Noxa binding inhibitor potency, dose response, biochemical, TR-FRET (AID 1417)
- Run conditions: Mcl-1/Noxa peptide interaction, cell-free TR-FRET (terbium/rhodamine), 2 h; measured here: absolute IC50
pIC50: −log10 of the molar value.
Reported endpoint: pIC50

Compound: CCC(C)(C)n1nnnc1C(c1ccc(O)c(OC)c1)N1CCc2ccccc2C1 (centres undefined)
Reported endpoint: pIC50
Result: > 6.40
//
Compound: CN(C)c1ccc(NC(=O)CCCc2ccccc2)cc1
Reported endpoint: pIC50
Result: < 4.27
//
Compound: CN(C)c1ccc(C(CNC(=O)c2ccccc2Br)c2c[nH]c3ccccc23)cc1 (centres undefined)
Reported endpoint: pIC50
Result: < 4.27

Now turn to the next compound.
Record request: pIC50 value, item `CC(=O)c1cc(C#N)c(SCc2ccccn2)nc1C` < 4.27

====

- Measured on: Induced myeloid leukemia cell differentiation protein Mcl-1 (Homo sapiens)
- Assay text: Mcl-1/Noxa binding inhibitor potency, dose response, biochemical, TR-FRET (AID 1417)
- Run conditions: Mcl-1/Noxa peptide interaction, cell-free TR-FRET (terbium/rhodamine), 2 h; measured here: absolute IC50
Reported endpoint: pIC50
Friendly reminder that pIC50 comes from taking -log10 of the concentration in mol/L.

Solved cases (6 shown):
Compound: CN1c2ccccc2N(C)C1(C)c1ccccc1
pIC50: 5.95
//
Compound: O=C(O)CCn1cc(C=C2C(=O)NC(=S)NC2=O)c(-c2cccc(Cl)c2)n1
pIC50: 5.74
//
Compound: Cc1cc2nc(-c3ccc(SCC(=O)N4CCN(C(=O)c5ccco5)CC4)nc3)[nH]c2cc1C
pIC50: 5.38
//
Compound: Cc1cc2ncn(/N=C/c3ccc([N+](=O)[O-])s3)c2cc1C
pIC50: 5.27
//
Compound: Cc1c(O)cc2c(c1O)C(=O)CC(c1ccc(O)cc1)O2 (configuration not stated)
pIC50: 5.55
//
Compound: CCOC1=C/C(=C/c2c(N)n3nc(-c4ccccc4)sc3nc2=O)C=CC1=O
pIC50: 5.61

Look up pIC50 with Induced myeloid leukemia cell differentiation protein Mcl-1 (Homo sapiens) for this compound: COC(=O)C1=C(C(=O)OC)C(c2cc(Cl)ccc2O)c2sc(=O)[nH]c2S1 (configuration not stated) 5.47

Look up pIC50 with Induced myeloid leukemia cell differentiation protein Mcl-1 (Homo sapiens) for this compound: COC/C=C/C1=CC2=CC(=O)C(C)(OC(=O)c3ccco3)C(=O)C2=CO1 (configuration not stated) 5.56

Look up pIC50 with Induced myeloid leukemia cell differentiation protein Mcl-1 (Homo sapiens) for this compound: `O=C(COc1cccnc1[N+](=O)[O-])c1ccc(Cl)s1` 5.55

Look up pIC50 with Induced myeloid leukemia cell differentiation protein Mcl-1 (Homo sapiens) for this compound: `CSc1nnc(-c2ccco2)c(-c2ccco2)n1` 4.88

Look up pIC50 with Induced myeloid leukemia cell differentiation protein Mcl-1 (Homo sapiens) for this compound: `Cc1[nH]c2ccccc2c1/C=N/Nc1ccc([N+](=O)[O-])cc1` 6.12

Look up pIC50 with Induced myeloid leukemia cell differentiation protein Mcl-1 (Homo sapiens) for this compound: `O=C(/C=C/c1ccc(Cl)c([N+](=O)[O-])c1)Nc1ccc(N2CCCC2)cc1` 5.08

====

- Measured on: Induced myeloid leukemia cell differentiation protein Mcl-1 (Homo sapiens) (UniProt Q07820)
- Assay text: Mcl-1/Noxa binding inhibitor potency, dose response, biochemical, TR-FRET (AID 1417)
- Run conditions: Mcl-1/Noxa peptide interaction, cell-free TR-FRET (terbium/rhodamine), 2 h; measured here: absolute IC50
Each entry below carries its recorded IC50.

Record request: IC50 value, item `CCn1cc(C(=O)NCc2ccc3c(c2)OCO3)c2cc(OC)c(OC)cc2c1=O` > 54 µM

Record request: IC50 value, item `O=c1cc2c(=O)oc3cc(O)c(O)oc3c2c(O)c1O` < 0.4 µM

Record request: IC50 value, item `Cc1cc(C)c(S(=O)(=O)/N=C2/C=C(SCC(=O)O)C(=O)c3ccccc32)cc1C` < 0.4 µM

Record request: IC50 value, item `c1ccc(CN=C2NN=C(c3cc4ccccc4o3)CS2)cc1` > 54 µM

Record request: IC50 value, item `O/N=C1/CCCSc2ccccc21` > 54 µM

Record request: IC50 value, item `NC(=S)n1[nH]c(-c2ccc([N+](=O)[O-])cc2)c(N=Nc2ccc(Cl)cc2)c1=O` < 0.4 µM

====

- Measured on: Induced myeloid leukemia cell differentiation protein Mcl-1 (Homo sapiens)
- Assay text: Mcl-1/Noxa binding inhibitor potency, dose response, biochemical, TR-FRET (AID 1417)
- Run conditions: Mcl-1/Noxa peptide interaction, cell-free TR-FRET (terbium/rhodamine), 2 h; measured here: absolute IC50
Reported endpoint: IC50

Molecule: O=C1NC(=S)S/C1=C\c1ccc(SCc2ccco2)o1
Measured on: Induced myeloid leukemia cell differentiation protein Mcl-1 (Homo sapiens)
IC50: < 400 nM

Molecule: O=C(Nc1ccc(S(=O)(=O)Nc2nccs2)cc1)c1cc(-c2ccncc2)nc2ccccc12
Measured on: Induced myeloid leukemia cell differentiation protein Mcl-1 (Homo sapiens)
IC50: < 400 nM

Molecule: COc1cccc(C(Nc2ccccn2)c2oc(CO)cc(=O)c2O)c1 (centres undefined)
Measured on: Induced myeloid leukemia cell differentiation protein Mcl-1 (Homo sapiens)
IC50: < 400 nM

Record request: IC50 value, item `COc1ccc(C(=O)n2nc(C)c(Br)c2C)cc1` > 54000 nM

Record request: IC50 value, item `COC(=O)c1ccc2nc(Nc3nc4c(F)cc(F)cc4s3)sc2c1` < 400 nM

Record request: IC50 value, item `O=C1C(Cl)=C(N2CCCCC2)C(=O)C(Cl)=C1c1cnc(N2CCCCC2)s1` < 400 nM

Record request: IC50 value, item `CC(C)OC(=O)Cn1cnc2ccc(Br)cc2c1=O` > 54000 nM

Record request: IC50 value, item `C=CCOC(=O)/C(=C\c1ccccc1)NC(=O)c1ccc(C)cc1` > 54000 nM

Record request: IC50 value, item `Cc1ccc(NC(=O)c2cc(N3C(=O)C=CC3=O)ccc2Cl)cc1C` < 400 nM
